Molecular target: UniProt:Q15910
Test: AlphaLISA enzyme activity inhibition, EZH2
Format: biochemical
Conditions: 5nM test substance; 0.005 µM
Please go through the items and note down their Enzyme inhibition % EZH2.
Numbers only, in %.

For orientation, consider the following solved cases.
CSc1cc(C)[nH]c(=O)c1CNC(=O)c1cc(-c2ccc(N3C[C@@H](C)O[C@@H](C)C3)nc2)c2c(c1C)OC(C)([C@H]1CC[C@H](N3CC(OCC(F)F)C3)CC1)O2 (stereo partly shown)	37.0
CCN(C)c1ccc(-c2cc(C(=O)NCc3c(SC)cc(C)[nH]c3=O)c(C)c3c2OC(C)(C2CCN(CC(F)(F)F)CC2)O3)cn1 (single isomer, unassigned)	98.3
CSc1cc(C)[nH]c(=O)c1CNC(=O)c1cc(-c2ccc(N3C[C@@H](C)O[C@@H](C)C3)nc2)c2c(c1C)OC(C)([C@H]1CC[C@H](N(C)CC(F)(F)F)CC1)O2 (single isomer, unassigned) [Compound 108]	4.3

Let's switch to this compound now.
Enquiry: Recorded Enzyme inhibition % EZH2 of CSc1cc(C)[nH]c(=O)c1CNC(=O)c1cc(-c2ccc(N3C[C@@H](C)O[C@@H](C)C3)nc2)c2c(c1C)OC(C)([C@H]1CC[C@H](N(C)CC(F)(F)F)CC1)O2 (single isomer, unassigned) [Compound 107] , please.
Return: 41.7

---

Biological target: EZH2 (Homo sapiens, UniProt Q15910)
Sequence (Q15910 whole entry, species assumed): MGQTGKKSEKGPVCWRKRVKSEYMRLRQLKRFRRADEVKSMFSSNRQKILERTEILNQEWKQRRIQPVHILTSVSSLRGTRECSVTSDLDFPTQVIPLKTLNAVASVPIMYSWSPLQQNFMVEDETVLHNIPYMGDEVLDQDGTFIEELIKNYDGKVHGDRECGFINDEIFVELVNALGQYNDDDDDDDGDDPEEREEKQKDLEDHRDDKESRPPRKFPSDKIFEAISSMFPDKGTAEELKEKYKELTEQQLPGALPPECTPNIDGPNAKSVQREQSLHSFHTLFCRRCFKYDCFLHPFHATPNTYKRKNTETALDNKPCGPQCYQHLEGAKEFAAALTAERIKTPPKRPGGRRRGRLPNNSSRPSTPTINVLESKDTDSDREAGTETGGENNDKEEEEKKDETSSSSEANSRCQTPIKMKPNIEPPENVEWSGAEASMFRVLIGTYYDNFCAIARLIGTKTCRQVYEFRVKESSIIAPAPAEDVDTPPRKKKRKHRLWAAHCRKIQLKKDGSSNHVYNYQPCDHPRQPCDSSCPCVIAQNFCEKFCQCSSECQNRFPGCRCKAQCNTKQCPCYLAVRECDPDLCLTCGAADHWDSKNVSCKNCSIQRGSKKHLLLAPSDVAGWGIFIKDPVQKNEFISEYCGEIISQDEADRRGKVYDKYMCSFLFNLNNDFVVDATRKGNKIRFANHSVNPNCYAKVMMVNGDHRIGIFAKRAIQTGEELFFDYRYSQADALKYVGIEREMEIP
Sequence (O75530 whole entry partner, species assumed): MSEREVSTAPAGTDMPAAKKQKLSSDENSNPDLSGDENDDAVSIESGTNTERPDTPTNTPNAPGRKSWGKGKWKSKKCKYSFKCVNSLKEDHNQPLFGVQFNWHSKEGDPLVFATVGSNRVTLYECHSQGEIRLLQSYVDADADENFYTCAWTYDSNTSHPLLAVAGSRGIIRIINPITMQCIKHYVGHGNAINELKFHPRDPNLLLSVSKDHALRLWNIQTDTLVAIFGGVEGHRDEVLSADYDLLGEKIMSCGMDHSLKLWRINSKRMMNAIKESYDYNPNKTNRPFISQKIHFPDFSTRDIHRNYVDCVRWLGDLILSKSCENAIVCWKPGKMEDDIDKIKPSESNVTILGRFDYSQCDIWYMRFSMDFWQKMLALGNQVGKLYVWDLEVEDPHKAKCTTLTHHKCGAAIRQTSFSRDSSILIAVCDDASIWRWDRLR
Sequence (Q15022 whole entry partner, species assumed): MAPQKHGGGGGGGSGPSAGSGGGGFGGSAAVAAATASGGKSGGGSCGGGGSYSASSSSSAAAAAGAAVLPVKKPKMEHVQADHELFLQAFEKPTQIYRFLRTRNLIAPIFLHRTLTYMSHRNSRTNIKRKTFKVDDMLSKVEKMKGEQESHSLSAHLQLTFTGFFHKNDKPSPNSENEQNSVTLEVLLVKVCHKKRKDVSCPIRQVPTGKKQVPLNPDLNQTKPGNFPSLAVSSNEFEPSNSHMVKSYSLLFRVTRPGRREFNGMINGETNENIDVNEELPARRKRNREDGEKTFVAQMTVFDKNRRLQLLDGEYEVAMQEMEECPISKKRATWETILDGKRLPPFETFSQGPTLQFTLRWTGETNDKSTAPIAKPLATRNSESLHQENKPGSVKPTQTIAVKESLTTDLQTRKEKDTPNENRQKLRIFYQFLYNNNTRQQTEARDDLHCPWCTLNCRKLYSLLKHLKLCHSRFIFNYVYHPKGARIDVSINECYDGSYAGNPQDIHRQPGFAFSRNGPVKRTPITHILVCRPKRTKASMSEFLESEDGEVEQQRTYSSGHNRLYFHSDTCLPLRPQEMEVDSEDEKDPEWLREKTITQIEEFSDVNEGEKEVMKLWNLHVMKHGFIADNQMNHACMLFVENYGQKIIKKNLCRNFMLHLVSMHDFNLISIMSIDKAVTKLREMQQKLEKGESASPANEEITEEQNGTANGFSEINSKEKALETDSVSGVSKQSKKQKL
Test: AlphaLISA enzyme activity inhibition, EZH2
Assay type: biochemical
Details: 5nM test substance
Counter-ions that a name gives are not always drawn.
measuredAttribute: inhibition at 0.005 µM (%)
One number for each entry, in %.

CSc1cc(C)[nH]c(=O)c1CNC(=O)c1cc(-c2ccc(N3C[C@@H](C)O[C@@H](C)C3)nc2)c2c(c1C)OC(C)(C1CCN(CCc3ccccc3)CC1)O2 (single isomer, unassigned) [Compound 55]	58.2
CSc1cc(C)[nH]c(=O)c1CNC(=O)c1cc(-c2ccc(N3C[C@@H](C)O[C@@H](C)C3)nc2)c2c(c1C)OC(C)([C@H]1CC[C@H](N)CC1)O2 (stereo partly shown) [Compound 100, hydrochloride]	96.3
CCN1CCC(C2(C)Oc3c(-c4ccc(N5C[C@@H](C)O[C@@H](C)C5)nc4)cc(C(=O)NCc4c(SC)cc(C)[nH]c4=O)c(C)c3O2)CC1 (single isomer, unassigned) [Compound 49]	99.2
CSc1cc(C)[nH]c(=O)c1CNC(=O)c1cc(-c2ccc(N3CCOCC3)nc2)c2c(c1C)OC(C)(C1CCN(CC(F)(F)F)CC1)O2 (stereo not shown) [Compound 61]	86.5
COCCN(C)[C@H]1CC[C@H](C2(C)Oc3c(-c4cnc(N5C[C@@H](C)O[C@@H](C)C5)nc4)cc(C(=O)NCc4c(SC)cc(C)[nH]c4=O)c(C)c3O2)CC1 (stereo partly shown) [Compound 25]	97.6

Need inhibition at 0.005 µM for each of these compounds.
1. CSc1cc(C)[nH]c(=O)c1CNC(=O)c1cc(-c2ccc(F)nc2F)c2c(c1C)OC(C)([C@H]1CC[C@H](N(C)C)CC1)O2 (relative stereo) [Compound 14]
2. CSc1cc(C)[nH]c(=O)c1CNC(=O)c1cc(-c2cnc(N3C[C@@H](C)O[C@@H](C)C3)nc2)c2c(c1C)OC(C)([C@H]1CC[C@H](N(C)CC(F)(F)F)CC1)O2 (stereo partly shown) [Compound 23]
3. CSc1cc(C)[nH]c(=O)c1CNC(=O)c1cc(-c2ccc(N3C[C@@H](C)O[C@@H](C)C3)nc2)c2c(c1C)OC(C)([C@H]1CC[C@H](N(C)CC3OCCO3)CC1)O2 (stereo partly shown) [Compound 32]
4. CSc1cc(C)[nH]c(=O)c1CNC(=O)c1cc(-c2ccc(N3C[C@@H](C)O[C@@H](C)C3)nc2)c2c(c1C)OC(C)([C@H]1CC[C@H](N(C)CCc3ccccc3)CC1)O2 (stereo partly shown) [Compound 112]
5. CSc1cc(C)[nH]c(=O)c1CNC(=O)c1cc(-c2cnc(N3CCCC3)nc2)c2c(c1C)OC(C)([C@H]1CC[C@H](N(C)C)CC1)O2 (relative stereo) [Compound 5]

Return:
[97.6, 34.2, 82.6, 58.5, 99.5]

---

System: SW-13 cells
Experiment: Cancer cell proliferation inhibition (Cell Counting Kit-8), adrenal cancer cell line
Type: cell-based
Conditions: Homo sapiens, SW13, 264 h, 1000 nM, cultured seven to 11 days; read-out: % inhibition rate SW-13
measuredAttribute: inhibition at 1 µM

# batch: return inhibition at 1 µM for each of the 3 compounds below
1. CSc1cc(C)[nH]c(=O)c1CNC(=O)c1cc(-c2ccc(N3CCOCC3)cc2)c2c(c1C)OC(C)([C@H]1CC[C@H](N(C)C)CC1)O2 (relative stereo)
2. CCN(C)c1ncc(-c2cc(C(=O)NCc3c(SC)cc(C)[nH]c3=O)c(C)c3c2OC(C)(C2CCN(CC(F)F)CC2)O3)cn1 (single isomer, unassigned)
3. CSc1cc(C)[nH]c(=O)c1CNC(=O)c1cc(-c2cnc(N(C)C)nc2)c2c(c1C)OC(C)(C1CCN(CC(F)(F)F)CC1)O2 (stereo not drawn)

Return:
30 to 70%
30 to 70%
≤ 30%

---

Target: EZH2 (Homo sapiens, UniProt Q15910)
Experiment: AlphaLISA enzyme activity inhibition, EZH2
Type: biochemical
Details: 10nM test substance
Method: In order to confirm the EZH1 and/or EZH2 activity inhibitory effect of the 1,3-benzodioxole derivative compounds represented by chemical formula I of the present invention, the activity was measured using an AlphaLISA test method. […] An activity was measured using the Magellan program on a Spark10M instrument. DMSO was used as a control group, an inhibition rate of enzyme activity was calculated using a following equation, and the results thereof are shown in Table 1 below. […]
For each entry below, report its inhibition at 0.01 µM value.
Numbers only, in %.

Consider the following illustrative entries.
CSc1cc(C)[nH]c(=O)c1CNC(=O)c1cc(-c2ccc(N3C[C@@H](C)O[C@@H](C)C3)nc2)c2c(c1C)OC(C)([C@H]1CC[C@H](N(C)CCCC(F)(F)F)CC1)O2 (stereo partly shown)	100
CSc1cc(C)[nH]c(=O)c1CNC(=O)c1cc(-c2ccc(N3CCOCC3)nc2)c2c(c1C)OC(C)(C1CCN(CC(F)F)CC1)O2 (single isomer, unassigned)	99.6
CCN(C)c1ccc(-c2cc(C(=O)NCc3c(SC)cc(C)[nH]c3=O)c(C)c3c2OC(C)(C2CCN(CC(F)F)CC2)O3)cn1 (single isomer, unassigned)	99.9

// each compound listed below needs its inhibition at 0.01 µM
1. CCN1CCC(C2(C)Oc3c(-c4ccc(N(C)CC)nc4)cc(C(=O)NCc4c(SC)cc(C)[nH]c4=O)c(C)c3O2)CC1 (single isomer, unassigned)
2. CSc1cc(C)[nH]c(=O)c1CNC(=O)c1cc(-c2ccc(N3CCOCC3)nc2)c2c(c1C)OC(C)(C1CCN(CC(F)(F)F)CC1)O2 (stereo not shown) [Compound 61]
3. CSc1cc(C)[nH]c(=O)c1CNC(=O)c1cc(-c2ccc(N3C[C@@H](C)O[C@@H](C)C3)nc2)c2c(c1C)OC(C)(C1CCN(CCc3ccccc3)CC1)O2 (single isomer, unassigned)

Return:
[100, 99.4, 93.3]

Hey, can you go through the list below and give me inhibition at 0.01 µM for every item?
1. COC1CN([C@H]2CC[C@H](C3(C)Oc4c(-c5ccc(N6C[C@@H](C)O[C@@H](C)C6)nc5)cc(C(=O)NCc5c(SC)cc(C)[nH]c5=O)c(C)c4O3)CC2)C1 (stereo partly shown)
2. CSc1cc(C)[nH]c(=O)c1CNC(=O)c1cc(-c2ccc(N3C[C@@H](C)O[C@@H](C)C3)nc2)c2c(c1C)OC(C)(C1CCN(CC(F)F)CC1)O2 (stereo partly shown) [Compound 46]
3. CCN1CCN(c2ncc(-c3cc(C(=O)NCc4c(SC)cc(C)[nH]c4=O)c(C)c4c3OC(C)(C3CCN(CC(F)(F)F)CC3)O4)cn2)CC1 (single isomer, unassigned) [Compound 76]
4. CSc1cc(C)[nH]c(=O)c1CNC(=O)c1cc(-c2ccc(N3C[C@@H](C)O[C@@H](C)C3)nc2)c2c(c1C)OC(C)(C1CCN(CC(F)(F)F)CC1)O2 (single isomer, unassigned)

Return:
99.9
84
99.6
99.6

---

Target: EZH2 (Homo sapiens, UniProt Q15910)
Experiment: AlphaLISA enzyme activity inhibition, EZH2
Format: biochemical
Conditions: 10nM test substance
Label TRUE when inhibition at 0.01 µM is at or above 70%; otherwise label FALSE.

Here's what some known entries look like.
CCN(C)c1ncc(-c2cc(C(=O)NCc3c(SC)cc(C)[nH]c3=O)c(C)c3c2OC(C)(C2CCN(CC(F)F)CC2)O3)cn1 (single isomer, unassigned) [Compound 81]	TRUE
CSc1cc(C)[nH]c(=O)c1CNC(=O)c1cc(-c2ccc(N3C[C@@H](C)O[C@@H](C)C3)nc2)c2c(c1C)OC(C)([C@H]1CC[C@H](N(C)C3CCCCC3)CC1)O2 (stereo partly drawn) [Compound 114]	TRUE
CSc1cc(C)[nH]c(=O)c1CNC(=O)c1cc(-c2cnc(N3CCSCC3)nc2)c2c(c1C)OC(C)(C1CCN(CC(F)(F)F)CC1)O2 (stereo not drawn) [Compound 92]	TRUE
CCCCN(C)c1ccc(-c2cc(C(=O)NCc3c(SC)cc(C)[nH]c3=O)c(C)c3c2OC(C)(C2CCN(CC(F)(F)F)CC2)O3)cn1 (stereo not drawn) [Compound 98]	FALSE

Now consider a different compound.
Enquiry: Could you verify whether the entry CSc1cc(C)[nH]c(=O)c1CNC(=O)c1cc(-c2ccc3occc3c2)c2c(c1C)OC(C)(C1CCN(CC(F)(F)F)CC1)O2 (stereo not drawn) [Compound 96] shows inhibition at 0.01 µM of no less than 70%?
Return: TRUE

All figures here come from patent EP4740948A1.
